meta.source: BindingDB's records for doi:10.1016/j.chembiol.2017.01.006

# testTarget: Ephrin type-A receptor 3 [29-207] (Homo sapiens, UniProt P29320)
# Sequence (P29320 29-207): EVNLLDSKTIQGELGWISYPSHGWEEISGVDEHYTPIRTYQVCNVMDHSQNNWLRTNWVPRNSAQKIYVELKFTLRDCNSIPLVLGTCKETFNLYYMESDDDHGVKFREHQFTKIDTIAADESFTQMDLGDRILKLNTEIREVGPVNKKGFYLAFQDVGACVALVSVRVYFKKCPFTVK
metric: Kd

INSERT INTO results (compoundsmiles, readoutvalue) VALUES
  ('COc1ccc2[nH]cc(CCNC(=O)[C@H](Cc3ccncc3)NC(=O)[C@H](Cc3ccc(Cl)cc3)NC(=O)[C@H](Cc3c[nH]c4ccc(O)cc34)NC(=O)CCCN)c2c1', '4.55 µM');

---

# testTarget: Ephrin type-A receptor 4 [29-209] (Homo sapiens, UniProt P54764)
# Sequence (P54764 29-209): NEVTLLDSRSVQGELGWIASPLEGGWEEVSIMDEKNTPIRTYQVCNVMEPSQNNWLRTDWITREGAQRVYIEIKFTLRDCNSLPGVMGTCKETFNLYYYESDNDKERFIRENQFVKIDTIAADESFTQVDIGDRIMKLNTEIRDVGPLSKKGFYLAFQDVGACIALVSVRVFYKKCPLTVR
pKi: −log10 of the molar value. Where a SMILES comes first, the peptide text is derived from it. [ ]: non-standard residue; d: D form. Trp(5-OH) = N[C@@H](Cc1c[nH]c2ccc(O)cc12)C(=O)O; Phe(4-Cl) = N[C@@H](Cc1ccc(Cl)cc1)C(=O)O; 4Pal = N[C@@H](Cc1ccncc1)C(=O)O; Ava = NCCCCC(=O)O; GABA = NCCCC(=O)O
metric: pKi

INSERT INTO results (compound, metric, limitqualifier, readoutvalue) VALUES
  ('NCCCCC(=O)N[C@@H](Cc1c[nH]c2ccc(O)cc12)C(=O)N[C@@H](Cc1ccc(Cl)cc1)C(=O)N[C@@H](Cc1ccncc1)C(=O)N[C@H](Cc1c[nH]c2ccccc12)C(N)=O [123B1] (H-[Ava][Trp(5-OH)][Phe(4-Cl)][4Pal][dW]-NH2)', 'pKi', '=', 5.52),
  ('NCCCC(=O)N[C@@H](Cc1c[nH]c2ccc(O)cc12)C(=O)N[C@@H](Cc1ccc(Cl)cc1)C(=O)N[C@@H](Cc1ccncc1)C(=O)NCCc1c[nH]c2ccc(O)cc12', 'pKi', '=', 5.59),
  ('NCCCC(=O)N[C@@H](Cc1c[nH]c2ccc(O)cc12)C(=O)N[C@@H](Cc1ccc(Cl)cc1)C(=O)N[C@@H](Cc1ccncc1)C(=O)N[C@H](Cc1c[nH]c2ccccc12)C(N)=O [120H10] (H-[GABA][Trp(5-OH)][Phe(4-Cl)][4Pal][dW]-NH2)', 'pKi', '=', 6.02),
  ('CC(C)(N)C(C)(C)C(=O)N[C@@H](Cc1c[nH]c2ccc(O)cc12)C(=O)N[C@@H](Cc1ccc(Cl)cc1)C(=O)N[C@@H](Cc1ccncc1)C(=O)N[C@H](Cc1ccncc1)C(N)=O', 'pKi', '<', 4.00),
  ('NCCCC(=O)N[C@@H](Cc1c[nH]c2ccc(O)cc12)C(=O)N[C@@H](Cc1ccc(Cl)cc1)C(=O)N[C@@H](Cc1ccncc1)C(=O)NCCc1c[nH]c2ccc(F)cc12', 'pKi', '=', 5.65),
  ('NCCC(=O)N[C@@H](Cc1c[nH]c2ccc(O)cc12)C(=O)N[C@@H](Cc1ccc(Cl)cc1)C(=O)N[C@@H](Cc1ccncc1)C(=O)N[C@H](Cc1c[nH]c2ccccc12)C(N)=O', 'pKi', '=', 5.67);
